Attribution: patent US20230118307A1

Target: T1, human GIP receptor (human, UniProt P48546 22-466)
T1 sequence (looked up): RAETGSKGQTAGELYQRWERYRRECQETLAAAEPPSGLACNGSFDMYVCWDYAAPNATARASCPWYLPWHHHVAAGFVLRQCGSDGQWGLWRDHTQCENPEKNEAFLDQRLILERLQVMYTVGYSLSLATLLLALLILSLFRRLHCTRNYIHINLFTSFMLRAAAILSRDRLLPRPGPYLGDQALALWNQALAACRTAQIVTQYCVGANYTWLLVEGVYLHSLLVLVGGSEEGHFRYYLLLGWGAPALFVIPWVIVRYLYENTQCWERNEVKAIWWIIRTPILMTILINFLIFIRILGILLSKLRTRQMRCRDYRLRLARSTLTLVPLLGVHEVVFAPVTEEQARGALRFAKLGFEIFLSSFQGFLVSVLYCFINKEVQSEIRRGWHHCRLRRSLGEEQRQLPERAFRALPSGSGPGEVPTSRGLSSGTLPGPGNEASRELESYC
Test: cell-based or functional assay
Positions of bridges follow the written chain, without caps; N, C: chain ends. Non-standard residues stand in square brackets, D forms with d. No end group written: not given here. *: point of attachment. Acetyl(2-(4-imidazolyl)) = O=C(Cc1c[nH]cn1)*; Aib = CC(C)(N)C(=O)O
# In vitro Activity Compared to Native Peptide (%) vs. GIP listing for each entry below
Readout Type: In vitro Activity Compared to Native Peptide (%) vs. GIP

[
  {
    "Binder": "[Acetyl(2-(4-imidazolyl))][Aib]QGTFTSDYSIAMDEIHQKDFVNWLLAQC (bridge 16-20) [triple agonist of SEQ ID NO: 85]",
    "Value Observed": "0.3%"
  },
  {
    "Binder": "[Acetyl(2-(4-imidazolyl))]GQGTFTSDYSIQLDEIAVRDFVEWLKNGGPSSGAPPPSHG [triple agonist of SEQ ID NO: 14]",
    "Value Observed": "< 0.1%"
  },
  {
    "Binder": "Y[Aib]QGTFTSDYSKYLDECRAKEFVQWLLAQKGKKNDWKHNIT (bridge 16-20) [triple agonist of SEQ ID NO: 23]",
    "Value Observed": "< 0.1%"
  },
  {
    "Binder": "H[Aib]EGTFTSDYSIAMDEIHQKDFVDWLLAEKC (bridge 16-20) [triple agonist of SEQ ID NO: 80]",
    "Value Observed": "0.1%"
  },
  {
    "Binder": "Y[Aib]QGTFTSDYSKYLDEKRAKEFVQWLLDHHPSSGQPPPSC (bridge 16-20) [triple agonist of SEQ ID NO: 42]",
    "Value Observed": "7.8%"
  }
]
